Provenance of the data: patent US20060258729A1

Molecular target: B. subtilis pol IIIC (Bacillus subtilis)
Construct: made in house
Sequence (P13267 whole entry): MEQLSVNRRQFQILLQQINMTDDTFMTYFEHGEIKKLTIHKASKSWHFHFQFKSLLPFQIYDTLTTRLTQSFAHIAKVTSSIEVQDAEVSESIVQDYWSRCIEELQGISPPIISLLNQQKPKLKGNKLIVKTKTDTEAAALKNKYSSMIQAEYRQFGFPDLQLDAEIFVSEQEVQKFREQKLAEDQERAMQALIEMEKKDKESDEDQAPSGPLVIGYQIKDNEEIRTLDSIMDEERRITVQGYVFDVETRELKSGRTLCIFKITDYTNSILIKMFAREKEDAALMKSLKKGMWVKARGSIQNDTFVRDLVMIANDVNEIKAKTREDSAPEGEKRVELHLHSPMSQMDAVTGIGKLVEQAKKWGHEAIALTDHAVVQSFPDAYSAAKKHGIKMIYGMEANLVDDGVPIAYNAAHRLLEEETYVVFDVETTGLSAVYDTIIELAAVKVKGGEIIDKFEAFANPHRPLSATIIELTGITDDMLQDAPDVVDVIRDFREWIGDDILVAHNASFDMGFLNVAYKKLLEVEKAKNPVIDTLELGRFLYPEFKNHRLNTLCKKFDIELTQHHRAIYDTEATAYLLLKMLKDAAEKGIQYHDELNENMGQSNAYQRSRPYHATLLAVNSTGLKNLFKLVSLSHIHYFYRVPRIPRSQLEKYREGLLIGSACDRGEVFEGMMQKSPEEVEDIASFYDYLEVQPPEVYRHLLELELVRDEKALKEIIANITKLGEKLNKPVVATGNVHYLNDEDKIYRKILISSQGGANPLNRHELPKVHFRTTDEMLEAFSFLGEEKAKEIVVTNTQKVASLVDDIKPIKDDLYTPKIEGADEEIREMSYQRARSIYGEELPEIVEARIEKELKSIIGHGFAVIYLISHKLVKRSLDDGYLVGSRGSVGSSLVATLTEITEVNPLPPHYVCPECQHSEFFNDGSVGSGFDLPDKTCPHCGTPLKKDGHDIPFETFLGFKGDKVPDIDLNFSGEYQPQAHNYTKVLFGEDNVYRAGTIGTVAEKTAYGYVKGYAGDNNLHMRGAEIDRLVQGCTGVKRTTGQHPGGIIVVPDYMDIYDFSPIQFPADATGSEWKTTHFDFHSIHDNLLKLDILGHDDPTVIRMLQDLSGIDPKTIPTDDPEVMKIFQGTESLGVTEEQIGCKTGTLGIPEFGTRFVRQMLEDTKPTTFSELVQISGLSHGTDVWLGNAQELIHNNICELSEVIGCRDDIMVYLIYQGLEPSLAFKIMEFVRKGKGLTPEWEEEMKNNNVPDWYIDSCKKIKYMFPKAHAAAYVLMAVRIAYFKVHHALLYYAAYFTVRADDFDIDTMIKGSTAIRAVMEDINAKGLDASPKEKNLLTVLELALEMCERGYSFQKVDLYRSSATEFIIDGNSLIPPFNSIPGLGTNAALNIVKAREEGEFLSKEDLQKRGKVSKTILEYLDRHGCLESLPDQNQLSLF
Experiment: DNA polymerase assay, B. subtilis pol IIIC
Type: biochemical
Conditions: B. subtilis Pol IIIC IC50, −dGTP, in the absence of dGTP
Values of IC50 strictly less than 90 µM map to 1.0, and values of at least 90 µM map to 0.0.

Sample answers from the record:
molecule: CCOc1ccc(-c2cc(C(=O)NN=Cc3ccc(O)c(OC)c3)[nH]n2)cc1 [Compound 19]
tgt: B. subtilis pol IIIC (Bacillus subtilis)
label-value: 1.0
--
molecule: COc1ccc(-c2cc(C(=O)NN=Cc3cc(OC)c(OC)c(OC)c3)[nH]n2)cc1 [Compound 17]
tgt: B. subtilis pol IIIC (Bacillus subtilis)
label-value: 1.0

Then this molecule:
Lab log: compare recorded IC50 with 90 µM; is it strictly lower for COc1cccc(-c2cc(C(=O)NN=Cc3ccc(OC)c(OC)c3)[nH]n2)c1 [Compound 2] ? 0.0
